# System: Mycobacterium tuberculosis Erdman (autoluminescent)
# Test details: total FIC90 (Loewe) at 90% inhibition, three-drug combination (log2); higher = more antagonistic
# Assay setup: in vitro model: valerate; time point: terminal (~4-5 doublings, model-specific)
So basically: total FIC90 at 0.3 or higher? That is 1.0. Lower than 0.3? That is 0.0.

Use the examples below as a reference point.
Compound: NNC(=O)c1ccncc1 [isoniazid] + CC(=O)NC[C@H]1CN(c2ccc(N3CCOCC3)c(F)c2)C(=O)O1 [linezolid] + COc1c(N2C[C@@H]3CCCN[C@@H]3C2)c(F)cc2c(=O)c(C(=O)O)cn(C3CC3)c12 [moxifloxacin]
Qualitative label: 1.0

Compound: CC(C)/N=c1\cc2n(-c3ccc(Cl)cc3)c3ccccc3nc-2cc1Nc1ccc(Cl)cc1 [clofazimine] + NC(=O)c1cnccn1 [pyrazinamide] + CO[C@H]1/C=C/O[C@@]2(C)Oc3c(C)c(O)c4c(O)c(c(/C=N/N5CCN(C6CCCC6)CC5)c(O)c4c3C2=O)NC(=O)/C(C)=C\C=C\[C@H](C)[C@H](O)[C@@H](C)[C@@H](O)[C@@H](C)[C@H](OC(C)=O)[C@@H]1C [rifapentine]
Qualitative label: 1.0

Compound: COc1nc2ccc(Br)cc2cc1[C@@H](c1ccccc1)[C@@](O)(CCN(C)C)c1cccc2ccccc12 [bedaquiline] + CC(C)/N=c1\cc2n(-c3ccc(Cl)cc3)c3ccccc3nc-2cc1Nc1ccc(Cl)cc1 [clofazimine] + NNC(=O)c1ccncc1 [isoniazid]
Qualitative label: 1.0

Compound: CC(=O)NC[C@H]1CN(c2ccc(N3CCOCC3)c(F)c2)C(=O)O1 [linezolid] + COc1c(N2C[C@@H]3CCCN[C@@H]3C2)c(F)cc2c(=O)c(C(=O)O)cn(C3CC3)c12 [moxifloxacin] + O=[N+]([O-])c1cn2c(n1)OC[C@@H](OCc1ccc(OC(F)(F)F)cc1)C2 [pretomanid]
Qualitative label: 1.0

Asked: Answer whether total FIC90 of CC[C@@H](CO)NCCN[C@@H](CC)CO [ethambutol] + COc1c(N2C[C@@H]3CCCN[C@@H]3C2)c(F)cc2c(=O)c(C(=O)O)cn(C3CC3)c12 [moxifloxacin] + CO[C@H]1/C=C/O[C@@]2(C)Oc3c(C)c(O)c4c(O)c(c(/C=N/N5CCN(C6CCCC6)CC5)c(O)c4c3C2=O)NC(=O)/C(C)=C\C=C\[C@H](C)[C@H](O)[C@@H](C)[C@@H](O)[C@@H](C)[C@H](OC(C)=O)[C@@H]1C [rifapentine] is greater than or equal to 0.3.
Given back: 0.0

Asked: Quick check, total FIC90 >= 0.3? CC(C)/N=c1\cc2n(-c3ccc(Cl)cc3)c3ccccc3nc-2cc1Nc1ccc(Cl)cc1 [clofazimine] + COc1c(N2C[C@@H]3CCCN[C@@H]3C2)c(F)cc2c(=O)c(C(=O)O)cn(C3CC3)c12 [moxifloxacin] + O=[N+]([O-])c1cn2c(n1)OC[C@@H](OCc1ccc(OC(F)(F)F)cc1)C2 [pretomanid]
Given back: 0.0

Asked: Does total FIC90 meet or surpass 0.3 for COc1nc2ccc(Br)cc2cc1[C@@H](c1ccccc1)[C@@](O)(CCN(C)C)c1cccc2ccccc12 [bedaquiline] + CC(C)/N=c1\cc2n(-c3ccc(Cl)cc3)c3ccccc3nc-2cc1Nc1ccc(Cl)cc1 [clofazimine] + CC[C@@H](CO)NCCN[C@@H](CC)CO [ethambutol] ?
Given back: 0.0

Asked: Reported total FIC90 at or above 0.3? CC(C)/N=c1\cc2n(-c3ccc(Cl)cc3)c3ccccc3nc-2cc1Nc1ccc(Cl)cc1 [clofazimine] + CC(=O)NC[C@H]1CN(c2ccc(N3CCOCC3)c(F)c2)C(=O)O1 [linezolid] + CO[C@H]1/C=C/O[C@@]2(C)Oc3c(C)c(O)c4c(O)c(c(/C=N/N5CCN(C)CC5)c(O)c4c3C2=O)NC(=O)/C(C)=C\C=C\[C@H](C)[C@H](O)[C@@H](C)[C@@H](O)[C@@H](C)[C@H](OC(C)=O)[C@@H]1C [rifampicin]
Given back: 1.0

Asked: Given COc1nc2ccc(Br)cc2cc1[C@@H](c1ccccc1)[C@@](O)(CCN(C)C)c1cccc2ccccc12 [bedaquiline] + CC[C@@H](CO)NCCN[C@@H](CC)CO [ethambutol] + O=[N+]([O-])c1cn2c(n1)OC[C@@H](OCc1ccc(OC(F)(F)F)cc1)C2 [pretomanid] , state whether its total FIC90 is at least 0.3.
Given back: 0.0

Asked: Quick check: does NNC(=O)c1ccncc1 [isoniazid] + CC(=O)NC[C@H]1CN(c2ccc(N3CCOCC3)c(F)c2)C(=O)O1 [linezolid] + CO[C@H]1/C=C/O[C@@]2(C)Oc3c(C)c(O)c4c(O)c(c(/C=N/N5CCN(C6CCCC6)CC5)c(O)c4c3C2=O)NC(=O)/C(C)=C\C=C\[C@H](C)[C@H](O)[C@@H](C)[C@@H](O)[C@@H](C)[C@H](OC(C)=O)[C@@H]1C [rifapentine] have total FIC90 greater than or equal to 0.3?
Given back: 0.0

Asked: Given CC(=O)NC[C@H]1CN(c2ccc(N3CCOCC3)c(F)c2)C(=O)O1 [linezolid] + O=[N+]([O-])c1cn2c(n1)OC[C@@H](OCc1ccc(OC(F)(F)F)cc1)C2 [pretomanid] + NC(=O)c1cnccn1 [pyrazinamide] , state whether its total FIC90 is at least 0.3.
Given back: 1.0

Asked: Item CC(=O)NC[C@H]1CN(c2ccc(N3CCOCC3)c(F)c2)C(=O)O1 [linezolid] + NC(=O)c1cnccn1 [pyrazinamide] + CO[C@H]1/C=C/O[C@@]2(C)Oc3c(C)c(O)c4c(O)c(c(/C=N/N5CCN(C6CCCC6)CC5)c(O)c4c3C2=O)NC(=O)/C(C)=C\C=C\[C@H](C)[C@H](O)[C@@H](C)[C@@H](O)[C@@H](C)[C@H](OC(C)=O)[C@@H]1C [rifapentine] with total FIC90 of 0.3 or above?
Given back: 0.0
